Values compiled from patent US20250250357A1.

- target_or_test_system: T1, human MSLN-R1-his protein (human, UniProt Q13421 296-390)
- T1 construct: Made in HEK293E cells, purified on nickel column; also called hMSLN-R1-his; human MSLN-R1 protein; not shown: His tag
- T1 chain: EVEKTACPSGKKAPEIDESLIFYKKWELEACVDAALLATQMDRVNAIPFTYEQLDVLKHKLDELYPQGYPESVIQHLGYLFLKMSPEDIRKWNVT
- run_description: ELISA, coated antigen, antibody 2 nM
metric: OD450
Reply: number alone, nothing else.

Sample S009-F7.48.1 chimeric antibody (antibody, human IgG1, kappa, V domains shown, Human-murine chimeric antibody, human IgG1/kappa constant regions) VH: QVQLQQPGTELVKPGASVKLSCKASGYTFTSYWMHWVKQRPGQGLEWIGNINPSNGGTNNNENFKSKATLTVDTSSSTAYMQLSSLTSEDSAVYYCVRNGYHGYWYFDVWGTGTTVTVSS VL: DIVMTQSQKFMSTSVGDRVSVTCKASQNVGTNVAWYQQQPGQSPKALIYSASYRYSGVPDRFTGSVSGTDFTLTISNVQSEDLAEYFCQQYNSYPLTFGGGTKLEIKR ; OD450 observed: 0.04

Sample S009-F7.67.12 chimeric antibody (antibody, human IgG1, kappa, V domains shown, Human-murine chimeric antibody, human IgG1/kappa constant regions) VH: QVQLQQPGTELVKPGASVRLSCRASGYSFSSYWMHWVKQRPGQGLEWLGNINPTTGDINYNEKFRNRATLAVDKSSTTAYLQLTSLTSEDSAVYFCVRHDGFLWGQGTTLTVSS VL: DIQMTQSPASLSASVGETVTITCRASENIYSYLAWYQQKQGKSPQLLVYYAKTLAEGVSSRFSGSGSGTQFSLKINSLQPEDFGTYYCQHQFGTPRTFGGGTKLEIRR ; OD450 observed: 0.05

Sample S009-F7.21.16 chimeric antibody (antibody, human IgG1, kappa, V domains shown, Human-murine chimeric antibody, human IgG1/kappa constant regions) VH: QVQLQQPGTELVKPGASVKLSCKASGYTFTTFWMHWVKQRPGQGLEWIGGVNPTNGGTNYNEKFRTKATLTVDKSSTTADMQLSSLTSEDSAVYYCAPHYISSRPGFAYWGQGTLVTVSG VL: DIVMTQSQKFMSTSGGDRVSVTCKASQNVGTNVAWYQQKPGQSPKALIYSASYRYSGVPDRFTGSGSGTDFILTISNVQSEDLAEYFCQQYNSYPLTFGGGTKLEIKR ; OD450 observed: 0.05
